From: ChEMBL document CHEMBL4819101

assayed.system: Thymidylate synthase (Homo sapiens)
assay.method.text: Inhibition of human thymidylate synthase expressed in Escherichia coli using 6R,S-tetrahydrofolate and dUMP as substrate by spectrophotometric analysis
measured.endpoint: IC50 (µM)

Nc1nc2[nH]cc(CCc3ccc(C(=O)N[C@@H](CCC(=O)O)C(=O)O)cc3)c2c(=O)[nH]1 5.39
Cc1ccc(C(C)C)c(OCc2cn(-c3ccccc3C)nn2)c1 2.21
Cc1ccc(C(C)C)c(OCc2cn(-c3cccc(C(=O)O)c3)nn2)c1 4.27

###

assayed.system: Thymidylate synthase (Homo sapiens, UniProt P04818)
Sequence (P04818 whole entry): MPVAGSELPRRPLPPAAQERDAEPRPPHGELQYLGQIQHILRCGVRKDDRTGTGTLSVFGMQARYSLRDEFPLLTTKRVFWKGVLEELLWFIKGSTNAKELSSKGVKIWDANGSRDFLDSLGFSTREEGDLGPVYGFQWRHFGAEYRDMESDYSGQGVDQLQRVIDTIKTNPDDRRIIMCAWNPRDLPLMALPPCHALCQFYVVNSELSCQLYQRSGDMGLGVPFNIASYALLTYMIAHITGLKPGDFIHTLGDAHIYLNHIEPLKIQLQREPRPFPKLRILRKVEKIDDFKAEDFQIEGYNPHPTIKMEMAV
assay.method.text: Inhibition of thymidylate synthase (unknown origin)
pIC50: −log10 of the molar value.
measured.endpoint: pIC50

molecule	assayed.system	endpoint.value
CCOC(=O)C1CCC(c2ccccc2)N1C(=O)c1cn(CCCNC(=O)C(F)(F)F)nn1 (stereo unspecified)	Thymidylate synthase (Homo sapiens, UniProt P04818)	7.24
